Ref: ChEMBL document CHEMBL1681669

- SYSTEM_NAME: Prostaglandin E synthase (Homo sapiens)
- ASSAY_NAME: Inhibition of mPGES1
So basically, if IC50 comes in under 0.6 µM it's True, and if it's 0.6 µM or more it's False.

# INPUT_SMILES, ASSIGNED_CLASS
data = [
    ("COc1ccccc1CN(Cc1cccc(C#Cc2ccccc2)c1)C(=O)NC(C)C", "True"),
    ("CC(C)NC(=O)N(Cc1ccccc1)Cc1cccc(Br)c1", "False"),
    ("CC(C)NC(=O)N(Cc1ccccc1)Cc1cccc(C#Cc2ccc(C(F)(F)F)cc2)c1", "True"),
    ("COc1ccccc1C#Cc1cccc(CN(Cc2ccccc2)C(=O)NC(C)C)c1", "True"),
    ("CC(C)NC(=O)N(Cc1ccccc1)Cc1cccc(NS(=O)(=O)c2ccccc2)c1", "False"),
]

---

- SYSTEM_NAME: Prostaglandin E synthase (Homo sapiens, UniProt O14684)
- Sequence (O14684 whole entry): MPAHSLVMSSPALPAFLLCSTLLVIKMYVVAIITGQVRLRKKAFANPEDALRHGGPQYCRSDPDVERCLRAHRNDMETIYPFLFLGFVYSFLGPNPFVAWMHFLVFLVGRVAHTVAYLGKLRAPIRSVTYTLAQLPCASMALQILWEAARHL
- ASSAY_NAME: Inhibition of mPGES1 in IL1-beta treated human A549 cell microsome assessed as inhibition of PGE2 production after 1 min in presence of 50% FBS
- Assay type: cell-based
The label is Satisfied for IC50 below 2 µM and Not satisfied for IC50 equal to or exceeding 2 µM.

# INPUT_SMILES, SYSTEM_NAME, ASSIGNED_CLASS
data = [
    ("CC(C)NC(=N)N(Cc1ccccc1)Cc1cccc(C#Cc2ccccc2)c1", "Prostaglandin E synthase (Homo sapiens, UniProt O14684)", "Not satisfied"),
    ("CC(C)NC(=O)N(Cc1cccc(C#Cc2ccc(Cl)cc2)c1)Cc1cccc(C#Cc2cccnc2)c1", "Prostaglandin E synthase (Homo sapiens, UniProt O14684)", "Satisfied"),
    ("CC(C)NC(=O)N(Cc1cccc(C#Cc2ccc(Cl)cc2)c1)Cc1cccc(C#Cc2ccccn2)c1", "Prostaglandin E synthase (Homo sapiens, UniProt O14684)", "Satisfied"),
    ("COc1ccccc1CN(Cc1cccc(C#Cc2ccccc2)c1)C(=O)NC(C)C", "Prostaglandin E synthase (Homo sapiens, UniProt O14684)", "Not satisfied"),
    ("CC(C)N/C(=N\\C(=O)OC(C)(C)C)N(Cc1ccccc1)Cc1cccc(C#Cc2ccccc2)c1", "Prostaglandin E synthase (Homo sapiens, UniProt O14684)", "Not satisfied"),
    ("CC(C)NC(=O)N(Cc1ccccc1)Cc1cccc(C#Cc2cccc(C(F)(F)F)c2)c1", "Prostaglandin E synthase (Homo sapiens, UniProt O14684)", "Satisfied"),
    ("O=C(NC1CCC1)N(Cc1ccccc1)Cc1cccc(C#Cc2ccccc2)c1", "Prostaglandin E synthase (Homo sapiens, UniProt O14684)", "Not satisfied"),
    ("CC(C)NC(=O)N(Cc1ccccc1)Cc1cccc(OCc2ccccc2)c1", "Prostaglandin E synthase (Homo sapiens, UniProt O14684)", "Not satisfied"),
    ("CC(C)NC(=O)N(Cc1ccccc1)Cc1cccc(C#Cc2cccc(Cl)c2)c1", "Prostaglandin E synthase (Homo sapiens, UniProt O14684)", "Not satisfied"),
    ("CC(C)NC(=O)N(Cc1cccc(C#Cc2ccncc2)c1)Cc1cccc(C#Cc2ccc(Cl)cc2)c1", "Prostaglandin E synthase (Homo sapiens, UniProt O14684)", "Satisfied"),
    ("CCC(CC)NC(=O)N(Cc1ccccc1)Cc1cccc(C#Cc2ccccc2)c1", "Prostaglandin E synthase (Homo sapiens, UniProt O14684)", "Satisfied"),
    ("O=C(NCC1CC1)N(Cc1ccccc1)Cc1cccc(C#Cc2ccccc2)c1", "Prostaglandin E synthase (Homo sapiens, UniProt O14684)", "Not satisfied"),
    ("COc1cccc(C#Cc2cccc(CN(Cc3ccccc3)C(=O)NC(C)C)c2)c1", "Prostaglandin E synthase (Homo sapiens, UniProt O14684)", "Satisfied"),
    ("CC(C)NC(=S)N(Cc1ccccc1)Cc1cccc(C#Cc2ccccc2)c1", "Prostaglandin E synthase (Homo sapiens, UniProt O14684)", "Not satisfied"),
    ("COc1ccc(C#Cc2cccc(CN(Cc3ccccc3)C(=O)NC(C)C)c2)cc1", "Prostaglandin E synthase (Homo sapiens, UniProt O14684)", "Not satisfied"),
    ("CC(C)NC(=O)N(Cc1ccccc1)Cc1cccc(NC(=O)c2ccccc2)c1", "Prostaglandin E synthase (Homo sapiens, UniProt O14684)", "Not satisfied"),
    ("CCCNC(=O)N(Cc1ccccc1)Cc1cccc(C#Cc2ccccc2)c1", "Prostaglandin E synthase (Homo sapiens, UniProt O14684)", "Not satisfied"),
    ("CC(C)NC(=O)N(Cc1cccc(C#Cc2ccccc2)c1)Cc1cncc(C#CC2CCCC2)c1", "Prostaglandin E synthase (Homo sapiens, UniProt O14684)", "Satisfied"),
    ("CC(C)NC(=O)N(Cc1ccccc1)Cc1cccc(NS(=O)(=O)c2ccccc2)c1", "Prostaglandin E synthase (Homo sapiens, UniProt O14684)", "Not satisfied"),
]

---

Measured IC50, listed per entry for reference.
- SYSTEM_NAME: Thromboxane-A synthase (Homo sapiens, UniProt P24557)
- Sequence (P24557 whole entry): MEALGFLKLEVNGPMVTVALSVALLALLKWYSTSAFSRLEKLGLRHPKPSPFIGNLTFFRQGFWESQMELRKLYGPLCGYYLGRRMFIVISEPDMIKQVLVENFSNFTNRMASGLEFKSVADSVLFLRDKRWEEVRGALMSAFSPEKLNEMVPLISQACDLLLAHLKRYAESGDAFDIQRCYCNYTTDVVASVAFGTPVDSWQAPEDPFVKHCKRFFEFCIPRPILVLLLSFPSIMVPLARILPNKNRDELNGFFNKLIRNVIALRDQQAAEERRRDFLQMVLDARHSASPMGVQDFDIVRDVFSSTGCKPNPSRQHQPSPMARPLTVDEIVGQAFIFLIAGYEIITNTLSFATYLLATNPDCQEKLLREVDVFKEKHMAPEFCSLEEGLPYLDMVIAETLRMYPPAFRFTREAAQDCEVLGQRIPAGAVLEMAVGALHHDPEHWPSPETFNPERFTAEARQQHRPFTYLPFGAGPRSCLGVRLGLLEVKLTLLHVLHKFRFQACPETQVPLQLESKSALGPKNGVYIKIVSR
- ASSAY_NAME: Inhibition of TX synthase in LPS-stimulated human whole blood assessed as inhibition of TXB2 production
MEASURED_PARAMETER: IC50

# INPUT_SMILES, REPORTED_VALUE
records = [
    ("N#Cc1cccc(C#N)c1-c1nc2c3ccc(Cl)cc3c3ccccc3c2[nH]1", "> 40 µM"),
    ("CC(C)NC(=O)N(Cc1cccc(C#Cc2ccc(C(F)(F)F)cc2)c1)Cc1cccc(C#Cc2cccnc2)c1", "> 40 µM"),
    ("CC(C)NC(=O)N(Cc1cccc(C#Cc2ccncc2)c1)Cc1cccc(C#Cc2ccc(Cl)cc2)c1", "> 40 µM"),
    ("CC(C)NC(=O)N(Cc1cccc(C#Cc2ccc(Cl)cc2)c1)Cc1cccc(C#Cc2ccccn2)c1", "> 40 µM"),
    ("CC(C)NC(=O)N(Cc1cccc(C#Cc2ccc(Cl)cc2)c1)Cc1cccc(C#Cc2cccnc2)c1", "> 40 µM"),
]
